- tested.target: human H1 (Homo sapiens, UniProt P35367)
- Construct: host or cells: CHO-K1
- Sequence (P35367 whole entry): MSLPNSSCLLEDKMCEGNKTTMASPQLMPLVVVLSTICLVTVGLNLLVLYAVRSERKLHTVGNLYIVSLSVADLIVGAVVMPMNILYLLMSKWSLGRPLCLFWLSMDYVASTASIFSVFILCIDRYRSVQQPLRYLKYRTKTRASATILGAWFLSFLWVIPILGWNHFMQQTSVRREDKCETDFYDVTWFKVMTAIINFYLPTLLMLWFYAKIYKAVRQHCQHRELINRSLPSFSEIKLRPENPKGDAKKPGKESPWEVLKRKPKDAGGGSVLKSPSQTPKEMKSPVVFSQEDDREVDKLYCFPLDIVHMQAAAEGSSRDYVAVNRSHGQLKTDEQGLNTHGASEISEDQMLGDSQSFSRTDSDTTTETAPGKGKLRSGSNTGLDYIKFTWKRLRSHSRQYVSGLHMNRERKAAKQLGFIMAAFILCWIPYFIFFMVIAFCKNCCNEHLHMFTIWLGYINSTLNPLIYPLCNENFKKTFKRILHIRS
- procedure.summary: In vitro histamine receptor cell-based assay (aequorin bioluminescence), H1 antagonism
- assay.context: CHO-K1 cells expressing human H1 and aequorin; histamine at EC80; read-out: H1 Antagonist EC50
property.label: EC50

Clc1ccc2nc(N3CCNCC3)n3ncnc3c2c1	> 10 µM
Cc1nc2c3ccc(C(F)(F)F)cc3nc(N3CCNCC3)n2n1	> 10 µM
Cc1nc2c3ccc(Cl)cc3nc(N3CCNCC3)n2n1	> 10 µM
CN(CCN)c1nc2ccc(Cl)cc2n2cnnc12	> 10 µM
CN1CCN(c2nc3cc(F)c(C(F)(F)F)cc3n3nnnc23)CC1	> 10 µM

Record request: EC50 value, item CN1CCN(c2nc3ccc(Cl)cc3c3conc23)CC1
> 10 µM

Quick one: EC50 of Fc1cc2nc(N3CCNCC3)c3nccn3c2cc1Cl ?
< 10 µM

May I ask what EC50 has been recorded for CCc1ccc2nc(N3CCNCC3)c3nncn3c2c1 ?
> 10 µM

---

- tested.target: human H4 (Homo sapiens, UniProt Q9H3N8)
- Construct: host or cells: CHO-K1
- Sequence (Q9H3N8 whole entry): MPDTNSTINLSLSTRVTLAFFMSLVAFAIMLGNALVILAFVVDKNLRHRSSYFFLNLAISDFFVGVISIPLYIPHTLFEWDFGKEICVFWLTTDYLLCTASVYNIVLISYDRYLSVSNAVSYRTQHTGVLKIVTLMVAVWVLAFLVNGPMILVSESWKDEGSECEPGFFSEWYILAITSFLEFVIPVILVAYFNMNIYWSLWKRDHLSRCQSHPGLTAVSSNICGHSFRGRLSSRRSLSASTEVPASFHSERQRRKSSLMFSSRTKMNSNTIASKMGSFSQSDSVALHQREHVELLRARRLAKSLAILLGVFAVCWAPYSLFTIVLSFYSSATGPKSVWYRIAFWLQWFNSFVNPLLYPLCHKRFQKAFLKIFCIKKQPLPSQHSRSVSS
- procedure.summary: In vitro histamine receptor cell-based assay (aequorin bioluminescence), H4 antagonism
- assay.context: CHO-K1 cells expressing human H4, aequorin and Gα16; histamine at EC80; read-out: H4 Antagonist EC50
- Procedure: The cell-based assays utilize an aequorin dependent bioluminescence signal. Doubly-transfected, stable CHO-K1 cell lines expressing human H1 or H4, mitochondrion-targeted aequorin, and (H4 only) human G protein Gα16 are obtained from Perkin-Elmer. […] CCD image capture on the Lumilux includes a 5 second baseline read prior to agonist addition, and generally a 40 second read per plate after agonist addition. […] Efficacy is measured as a percentage of positive control activity.
pEC50: −log10 of the molar value. Where a name gives a salt, the structure may show the parent alone.
property.label: pEC50

Worked cases, answers included:
Clc1ccc2nc(C3=CCNCC3)c3nncn3c2c1	< 5.00
Fc1cc(C(F)(F)F)cc2c1nc(N1CCNCC1)c1nnnn12 [Example 206, hydrochloride]	> 5.00
CN1CCN(c2nc3cc(C(F)(F)F)c(Cl)cc3n3cnnc23)CC1	> 5.00
Cc1cn2c(n1)c(N1CCNCC1)nc1ccc(Cl)cc12	< 5.00
CN1CCN(c2nc3cc(Br)c(F)cc3n3cnnc23)CC1	> 5.00

# query: pEC50 of entry Cc1nc2c(N3CCN(C)CC3)nc3ccc(Br)cc3n2n1
> 5.00

For the compound CN1CCN(c2nc3ccc(Cl)cc3c3nnnn23)CC1 , what pEC50 is on record?
> 5.00

---

- tested.target: human H4 (Homo sapiens)
- Construct: host or cells: CHO-K1
- procedure.summary: In vitro histamine receptor cell-based assay (aequorin bioluminescence), H4 antagonism
- assay.context: CHO-K1 cells expressing human H4, aequorin and Gα16; histamine at EC80; read-out: H4 Antagonist EC50
Entries and their measured EC50 follow.

Reference set (4 entries):
Clc1ccc2nc(OC3CNC3)c3nncn3c2c1	> 10 µM
Cc1nc2c3ccc(Cl)cc3nc(N3CCN(C)CC3)n2n1	< 10 µM
CN1CCN(c2nc3ccc(Br)cc3c3cn(C)nc23)CC1	< 10 µM
Fc1cc2nc(N3CCNCC3)c3nnnn3c2cc1C(F)(F)F	< 10 µM

Below: the item to evaluate.
Give the reported EC50 for Cc1nc2c3ccc(F)cc3nc(N3CCNCC3)n2n1 (system: human H4 (Homo sapiens)).
> 10 µM
